// data source = paper PMC7020754

target.desc: T1, Rv0023 (XRE family transcription regulator) (Mycobacterium tuberculosis, UniProt P9WMI3 1-256)
T1 sequence: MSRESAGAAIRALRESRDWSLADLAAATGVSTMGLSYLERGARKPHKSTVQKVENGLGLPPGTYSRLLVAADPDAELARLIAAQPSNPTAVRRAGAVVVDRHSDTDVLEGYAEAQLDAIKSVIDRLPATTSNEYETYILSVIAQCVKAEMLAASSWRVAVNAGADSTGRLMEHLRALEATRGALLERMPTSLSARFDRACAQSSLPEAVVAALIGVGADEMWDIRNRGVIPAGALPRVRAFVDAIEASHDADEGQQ
assay.summary: EMSA; 8 pmol protein
condition.notes: protein: recombinant; tags: His (implied by Ni-NTA purification; pET23a, also printed pET21b); chain copies: 2; label: 32P; blunt
measured.quantity: binding result

Known results for binders:
OL3 (dsDNA) DNA 1: AGAGCCCGCCACAGACATATACGCTTTTGCCTATGTTTCG DNA 2: CGAAACATAGGCAAAAGCGTATATGTCTGTGGCGGGCTCT; binds
F6 (dsDNA) DNA 1: GCTCAGGCCCATGGTGCTTACGCCAGTGGCGGCCGCCAGGTCCGCGAGGGACCAGTCACG DNA 2: CGTGACTGGTCCCTCGCGGACCTGGCGGCCGCCACTGGCGTAAGCACCATGGGCCTGAGC; no binding
OL5 (dsDNA) DNA 1: ATTCTCTTGCAGAGCCCGCCACAGACATATACGCTTTTGC DNA 2: GCAAAAGCGTATATGTCTGTGGCGGGCTCTGCAAGAGAAT; no binding
F1 (dsDNA) DNA 1: AGAGCCCGCCACAGACATATACGCTTTTGCCTATGTTTCGTTCAACAAGGAGGCCGGCAC DNA 2: GTGCCGGCCTCCTTGTTGAACGAAACATAGGCAAAAGCGTATATGTCTGTGGCGGGCTCT; binds
F2 (dsDNA) DNA 1: CACCCCTTATGTATATACGTTTTTATCGCGATTCTCTTGCAGAGCCCGCCACAGACATAT DNA 2: ATATGTCTGTGGCGGGCTCTGCAAGAGAATCGCGATAAAAACGTATATACATAAGGGGTG; binds
OL1 (dsDNA) DNA 1: CACCCCTTATGTATATACGTTTTTATCGCGATTCTCTTGC DNA 2: GCAAGAGAATCGCGATAAAAACGTATATACATAAGGGGTG; binds

Could you now consider this next binder?
Entry under review: OL2 (dsDNA) DNA 1: TTTTATCGCGATTCTCTTGCAGAGCCCGCCACAGACATAT DNA 2: ATATGTCTGTGGCGGGCTCTGCAAGAGAATCGCGATAAAA . Reported binding result?
no binding
